# method.notes: Selectivity for human adenosine A2A receptor over adenosine A1 receptor
Criterion: Ratio strictly less than 9. Met: label 1. Not met: label 0.

>>> cat("N#Cc1cccc(C(=O)Nc2nc3cc(C(=O)N4CCCCC4)cnc3n2Cc2ccc(F)cc2)c1")
"label 1"
>>> cat("Cn1c(NC(=O)c2cccc(C#N)c2)nc2cc(C(=O)N3CCCCC3)cnc21")
"label 0"
>>> cat("CCOCCn1c(NC(=O)c2cccc(C#N)c2)nc2cc(C(=O)N3CCOCC3)cnc21")
"label 1"
>>> cat("COc1cccc(-n2c(NC(=O)c3cccc(C#N)c3)nc3cc(C(=O)N4CCCCC4)cnc32)c1")
"label 1"
>>> cat("COc1ccc(Cn2c(NC(=O)c3cccc(C#N)c3)nc3cc(C(=O)N4CCCCC4)cnc32)cc1")
"label 1"
>>> cat("CCN(C)C(=O)c1ccc2nc(NC(=O)c3cccc(C#N)c3)n(CCCOC)c2n1")
"label 0"
>>> cat("N#Cc1cccc(C(=O)Nc2nc3cc(C(=O)N4CCCCC4)cnc3n2C2CCOCC2)c1")
"label 0"
>>> cat("COCCCn1c(NC(=O)c2cccc(C#N)c2)nc2ccc(C(=O)N3CCCCC3)cc21")
"label 0"
>>> cat("CC(=O)NCCn1c(NC(=O)c2cccc(C#N)c2)nc2cc(C(=O)N3CCCCC3)cnc21")
"label 0"
>>> cat("N#Cc1cccc(C(=O)Nc2nc3cc(C(=O)N4CCCCC4)cnc3n2Cc2cccnc2)c1")
"label 1"
>>> cat("N#Cc1cccc(C(=O)Nc2nc3cc(C(=O)N4CCCCC4)cnc3n2CCCO)c1")
"label 0"
>>> cat("N#Cc1cccc(C(=O)Nc2nc3cc(C(=O)N4CCCCC4)cnc3n2Cc2ccncc2)c1")
"label 0"
>>> cat("CCN(CC)C(=O)c1ccc2nc(NC(=O)c3cccc(C#N)c3)n(CCCOC)c2c1")
"label 0"
>>> cat("COCCCn1c(NC(=O)c2cccc(C#N)c2)nc2cc(C(=O)N3CCOCC3)cnc21")
"label 0"
>>> cat("COCCCn1c(NC(=O)c2cccc(C#N)c2)nc2ccc(C(=O)N(C)C(C)C)nc21")
"label 0"
>>> cat("CCCCCn1c(NC(=O)c2cccc(C#N)c2)nc2cc(C(=O)N3CCCCC3)cnc21")
"label 1"
